Data origin, for the record: paper PMC4336329

# tested system: human ether-à-go-go-related gene (hERG) potassium channel (human, UniProt Q12809);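 further: peak tail current of the secondary pulse compared with the same well before compound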
# Sequence (Q12809 whole entry, looked up): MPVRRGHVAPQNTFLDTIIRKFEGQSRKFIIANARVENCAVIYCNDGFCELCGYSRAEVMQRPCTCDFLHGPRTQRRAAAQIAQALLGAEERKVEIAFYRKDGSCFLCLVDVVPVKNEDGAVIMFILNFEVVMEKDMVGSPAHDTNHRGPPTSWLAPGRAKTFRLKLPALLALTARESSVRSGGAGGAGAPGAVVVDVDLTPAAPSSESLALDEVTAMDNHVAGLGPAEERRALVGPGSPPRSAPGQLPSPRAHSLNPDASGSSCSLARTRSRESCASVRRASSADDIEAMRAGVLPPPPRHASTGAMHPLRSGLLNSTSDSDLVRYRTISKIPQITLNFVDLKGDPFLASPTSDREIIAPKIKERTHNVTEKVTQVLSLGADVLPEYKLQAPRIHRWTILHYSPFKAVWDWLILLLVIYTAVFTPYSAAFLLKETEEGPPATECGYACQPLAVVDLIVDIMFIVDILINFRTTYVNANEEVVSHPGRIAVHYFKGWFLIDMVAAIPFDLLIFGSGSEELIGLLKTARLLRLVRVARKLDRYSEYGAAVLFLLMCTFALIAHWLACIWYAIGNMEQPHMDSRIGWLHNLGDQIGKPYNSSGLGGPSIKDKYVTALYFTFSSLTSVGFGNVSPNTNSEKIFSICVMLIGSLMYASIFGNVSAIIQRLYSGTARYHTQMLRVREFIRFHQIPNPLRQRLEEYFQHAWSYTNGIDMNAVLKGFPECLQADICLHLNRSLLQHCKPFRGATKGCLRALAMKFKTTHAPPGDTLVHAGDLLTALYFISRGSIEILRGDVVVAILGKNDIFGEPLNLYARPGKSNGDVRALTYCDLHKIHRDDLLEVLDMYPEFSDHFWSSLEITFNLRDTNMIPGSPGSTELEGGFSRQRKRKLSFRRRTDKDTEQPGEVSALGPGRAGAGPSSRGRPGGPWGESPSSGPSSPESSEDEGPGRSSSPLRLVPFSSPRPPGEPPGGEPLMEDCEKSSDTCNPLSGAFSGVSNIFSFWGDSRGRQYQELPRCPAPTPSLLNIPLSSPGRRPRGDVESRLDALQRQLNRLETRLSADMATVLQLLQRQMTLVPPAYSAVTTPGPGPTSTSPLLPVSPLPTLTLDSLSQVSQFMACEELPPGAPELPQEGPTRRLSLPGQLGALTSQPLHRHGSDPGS
# assay protocol: primary screen, population patch clamp on CHO cells stably expressing hERG; higher = less effect of the substance
Among all 310,000 compounds or so, about 14,000 (4.5%) showed an effect of 50% or more. The effect is printed as a negative number. Only a selection was taken, and strong results are over-represented in it overall.
Would you please tag the item MET when its hERG current change (%, negative = inhibition) at 10uM is -50% or above, and NOT MET when it is below?

As a guide, the following entries are already answered.
{"molecule": "O=S(=O)(Nc1ncccn1)c1ccc(NS(=O)(=O)c2cc(Cl)ccc2Cl)cc1", "discrete label": "MET"}
{"molecule": "Cc1c(CC(=O)N2CCN(C(=O)C3COc4ccccc4O3)CC2)c(=O)oc2c(C)c(O)ccc12 (centres unmarked)", "discrete label": "MET"}
{"molecule": "O=C(OC(C(=O)NCc1cccs1)c1ccccc1F)c1ccco1 (centres unmarked)", "discrete label": "MET"}
{"molecule": "O=C(NCCN1CCCC1)C1(S(=O)(=O)c2ccc(Cl)cc2)CC1", "discrete label": "MET"}
{"molecule": "COc1ccc(N2CCN(CCCNC(=O)C3(S(=O)(=O)c4ccc(Cl)cc4)CC3)CC2)cc1", "discrete label": "NOT MET"}
{"molecule": "O=C(NCCCN1CCN(c2cccc(Cl)c2)CC1)C1(S(=O)(=O)c2ccc(Cl)cc2)CC1", "discrete label": "NOT MET"}

Does COc1cc(C)cc2oc(=O)c(CC(=O)N3CCN(C(=O)C4COc5ccccc5O4)CC3)c(C)c12 (centres unmarked) have a reported hERG current change (%, negative = inhibition) at 10uM of at least -50%?
NOT MET

Does Cc1c(CC(=O)N2CCN(C(=O)C3COc4ccccc4O3)CC2)c(=O)oc2cc(O)c(Cl)cc12 (centres unmarked) have a reported hERG current change (%, negative = inhibition) at 10uM of at least -50%?
NOT MET
